Target: T1, hu-sCD47-6His; extracellular domain of human CD47 antigen with 6His-tag (human)
T1 construct: also called hCD47-his; soluble hCD47
Experiment: SPR Biacore;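 also: antibodies captured on anti-IgG CM5 chip, soluble His-tagged human CD47 flowed over at rising concentrations, five 10 min injections, flow cell 1 as reference, 1:1 model fit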
Quick reference: kon of the listed items.
Write the value in M⁻¹ s⁻¹ as a bare number.

Consider the worked cases shown below.
| binder | test.value |
| --- | --- |
| h20-VH2-VL3 (candidate 20.8) (antibody, human IgG4 S228P, kappa, V domains shown, hIgG4-S228P/kappa; also called h20-H2-L3) VH: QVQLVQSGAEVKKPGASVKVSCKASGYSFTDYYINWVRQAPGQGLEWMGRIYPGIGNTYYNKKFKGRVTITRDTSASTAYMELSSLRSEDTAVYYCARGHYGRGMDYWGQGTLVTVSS VL: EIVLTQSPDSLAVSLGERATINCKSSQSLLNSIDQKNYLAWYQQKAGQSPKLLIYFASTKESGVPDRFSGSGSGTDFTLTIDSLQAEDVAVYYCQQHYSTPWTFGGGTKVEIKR | 189000 |
| h20-VH2-VL5 (candidate 20.10) (antibody, human IgG4 S228P, kappa, V domains shown, hIgG4-S228P/kappa; also called h20-H2-L5) VH: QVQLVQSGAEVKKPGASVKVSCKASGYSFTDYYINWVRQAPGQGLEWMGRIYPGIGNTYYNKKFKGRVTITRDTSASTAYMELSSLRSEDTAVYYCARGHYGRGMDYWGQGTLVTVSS VL: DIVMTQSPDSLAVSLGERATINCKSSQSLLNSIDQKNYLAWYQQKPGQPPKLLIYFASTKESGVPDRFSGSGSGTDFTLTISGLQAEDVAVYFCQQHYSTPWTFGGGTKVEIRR | 118000 |
| h20-VH5-VL3 (candidate 20.23) (antibody, human IgG4 S228P, kappa, V domains shown, hIgG4-S228P/kappa; also called h20-H5-L3) VH: QVQLVQSGAEVKKPGASVKVSCKASGYSFTDYYINWVRQAPGQGLEWMGRIYPGIGNTYYNKKFKGRVTMTRYTSISTAYMELSRLRSDDTAVYFCARGHYGRGMDYWGQGTTVTVSS VL: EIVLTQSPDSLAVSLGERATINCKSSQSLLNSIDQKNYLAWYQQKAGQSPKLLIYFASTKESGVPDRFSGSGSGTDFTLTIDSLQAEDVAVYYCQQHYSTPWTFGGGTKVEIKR | 104000 |
| h20-VH4-VL4 (candidate 20.19) (antibody, human IgG4 S228P, kappa, V domains shown, hIgG4-S228P/kappa; also called h20-H4-L4) VH: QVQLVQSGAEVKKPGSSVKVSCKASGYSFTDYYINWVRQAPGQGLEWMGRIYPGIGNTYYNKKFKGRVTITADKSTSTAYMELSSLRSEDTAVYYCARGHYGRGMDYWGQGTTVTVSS VL: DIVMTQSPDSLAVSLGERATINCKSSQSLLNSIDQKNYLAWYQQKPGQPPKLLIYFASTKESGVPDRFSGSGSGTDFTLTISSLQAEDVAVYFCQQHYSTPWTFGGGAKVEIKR | 179000 |
| h20-VH1-VL4 (candidate 20.4) (antibody, human IgG4 S228P, kappa, V domains shown, hIgG4-S228P/kappa; also called h20-H1-L4) VH: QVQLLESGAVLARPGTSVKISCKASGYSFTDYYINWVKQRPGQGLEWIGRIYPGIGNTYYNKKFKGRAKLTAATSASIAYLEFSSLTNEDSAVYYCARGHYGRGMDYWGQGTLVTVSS VL: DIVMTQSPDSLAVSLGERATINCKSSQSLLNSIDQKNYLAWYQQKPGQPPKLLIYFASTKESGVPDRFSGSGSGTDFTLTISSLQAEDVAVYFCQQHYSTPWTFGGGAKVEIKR | 126000 |
| h20-VH3-VL5 (candidate 20.15) (antibody, human IgG4 S228P, kappa, V domains shown, hIgG4-S228P/kappa; also called h20-H3-L5) VH: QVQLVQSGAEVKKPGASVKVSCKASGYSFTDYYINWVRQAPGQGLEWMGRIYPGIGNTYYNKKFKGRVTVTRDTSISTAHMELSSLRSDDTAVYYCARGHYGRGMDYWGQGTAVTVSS VL: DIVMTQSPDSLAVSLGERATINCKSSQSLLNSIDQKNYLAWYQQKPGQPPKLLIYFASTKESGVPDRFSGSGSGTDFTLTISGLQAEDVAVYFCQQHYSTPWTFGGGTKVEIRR | 242000 |
| h20-VH5-VL4 (candidate 20.24) (antibody, human IgG4 S228P, kappa, V domains shown, hIgG4-S228P/kappa; also called h20-H5-L4) VH: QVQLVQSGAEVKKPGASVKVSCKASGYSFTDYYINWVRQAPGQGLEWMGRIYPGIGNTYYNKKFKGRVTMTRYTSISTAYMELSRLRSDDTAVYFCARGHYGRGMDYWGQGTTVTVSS VL: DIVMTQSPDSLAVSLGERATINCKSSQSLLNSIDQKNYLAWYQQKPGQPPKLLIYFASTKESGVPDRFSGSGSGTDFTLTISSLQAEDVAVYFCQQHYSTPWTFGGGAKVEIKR | 103000 |
| h20-VH5-VL5 (candidate 20.25) (antibody, human IgG4 S228P, kappa, V domains shown, hIgG4-S228P/kappa; also called h20-H5-L5) VH: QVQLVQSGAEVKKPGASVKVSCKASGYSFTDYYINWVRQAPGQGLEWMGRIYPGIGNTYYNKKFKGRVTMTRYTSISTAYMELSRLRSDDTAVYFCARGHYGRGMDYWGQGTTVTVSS VL: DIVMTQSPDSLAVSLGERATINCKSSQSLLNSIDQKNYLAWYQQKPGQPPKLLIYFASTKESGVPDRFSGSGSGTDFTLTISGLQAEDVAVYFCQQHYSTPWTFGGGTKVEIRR | 126000 |
| h20-VH2-VL4 (candidate 20.9) (antibody, human IgG4 S228P, kappa, V domains shown, hIgG4-S228P/kappa; also called h20-H2-L4) VH: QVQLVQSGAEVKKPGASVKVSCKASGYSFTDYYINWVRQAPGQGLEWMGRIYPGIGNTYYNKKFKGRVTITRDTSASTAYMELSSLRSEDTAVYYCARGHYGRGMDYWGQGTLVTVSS VL: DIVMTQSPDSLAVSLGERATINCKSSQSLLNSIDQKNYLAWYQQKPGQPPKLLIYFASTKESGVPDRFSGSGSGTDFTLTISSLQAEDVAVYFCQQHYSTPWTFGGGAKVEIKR | 219000 |

Then this binder:
Request: Looking for the measured kon of h20-VH1-VL3 (candidate 20.3) (antibody, human IgG4 S228P, kappa, V domains shown, hIgG4-S228P/kappa; also called h20-H1-L3) VH: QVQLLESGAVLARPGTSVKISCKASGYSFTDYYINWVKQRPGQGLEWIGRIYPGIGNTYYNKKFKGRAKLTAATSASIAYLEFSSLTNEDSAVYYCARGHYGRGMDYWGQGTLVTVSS VL: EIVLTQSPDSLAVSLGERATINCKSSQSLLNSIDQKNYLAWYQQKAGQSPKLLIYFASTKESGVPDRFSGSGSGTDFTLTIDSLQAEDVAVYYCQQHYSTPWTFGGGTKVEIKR , can you help?
Response: 131000

Origin of values: patent US20220356245A1
